All values here come from PubChem BioAssay (NCI).

System: MALME-3M melanoma
Assay: NCI tumour cell line growth inhibition, 48 h
readout.type: TGI

For orientation, consider the following solved cases.
1. NNC(=O)/C(NC(=O)c1ccccc1)=C(\N)c1cccc([N+](=O)[O-])c1 = > 100 µM
2. CS(=O)(=O)Nc1cc(-c2ccc3ncc(C#N)c(Nc4ccc(F)c(Cl)c4)c3c2)cnc1Cl = 0.278 µM

Q: Need TGI, item "COc1cc(C2C(C(=O)NCc3ccccc3)=C(C)NC(C)=C2C(=O)NCc2ccccc2)ccc1O"
Result: > 100 µM

Q: Another: COC(=O)C1C(C(=O)O)C2(c3ccccc3)C(=O)C1(c1ccccc1)C(c1ccc(OC)cc1)=C2c1ccc(OC)cc1 (configuration not stated)
Result: 75.7 µM

Q: Same question for "COc1ccc(C[C@H]2COC(=O)[C@@H]2Cc2ccc(Br)cc2)cc1OC" please.
Result: > 89.5 µM
